Exercise: for every item that follows, state its recorded cell viability.
- Tested on: K-562
- assay_procedure: cell viability (% survival relative to DMSO control, bortezomib = 0%); higher = less cytotoxic
- measurement_parameters: 10000 nM; 72 h
One number for each entry, in %.

compound | readout_value
CC1(C)[C@@H](O[C@H]2O[C@H](C(=O)O)[C@@H](O)[C@H](O)[C@H]2O[C@@H]2O[C@H](C(=O)O)[C@@H](O)[C@H](O)[C@H]2O)CC[C@]2(C)[C@H]3C(=O)C=C4[C@@H]5C[C@@](C)(C(=O)O)CC[C@]5(C)CC[C@@]4(C)[C@]3(C)CC[C@@H]12 | 83.4

Please give cell viability for each item listed below.
1. CC(C)c1cc2c(c(O)c1O)[C@@]1(C(=O)O)CCCC(C)(C)[C@@H]1CC2
2. C=C(C)[C@H]1Cc2c(ccc3c2O[C@@H]2COc4cc(OC)c(OC)cc4[C@@H]2C3=O)O1
3. CCN(CC)CCCC(C)Nc1ccnc2cc(Cl)ccc12 (stereo not given)
4. Cc1cn([C@H]2C[C@H](O)[C@@H](COP(=O)(O)OP(=O)(O)O)O2)c(=O)[nH]c1=O [Thymidine diphosphate]
5. CC[C@H](C)C(=O)O[C@H]1C[C@@H](C)C=C2C=C[C@H](C)[C@H](CC[C@@H]3C[C@@H](O)CC(=O)O3)[C@H]21
6. CCCCC/C=C\C/C=C\C/C=C\C/C=C\CCCCN1C(=O)C=CC1=O [N-Arachidonylmaleimide]

1. 83.2
2. 2.57
3. 86.3
4. 99.6
5. 88.4
6. 90.6
